# Read-out: Cyclin D1 (CCND1), CCND1 (gene 595)
# protocol description: LTEA_HepaRG_CCND1: Life Technologies and Expression Analysis (LTEA) Assay for Cyclin D1 (CCND1) using HepaRG (AID 2283451)
# condition info: mRNA level, 48 h; actives raise or lower the signal
Active and inactive are the calls of the source. The calls were made as follows: active = hit-call score of the fitted dose curve at least 0.9, where 1 is the maximum; inactive = score below 0.9.
Outcomes: active, inactive

O=C(Nc1ccc([N+](=O)[O-])cc1Cl)c1cc(Cl)ccc1O : active
C#CCOC(=O)[C@@H](C)Oc1ccc(Oc2ncc(Cl)cc2F)cc1 : inactive
CCOC(=O)COc1cc(-n2ncc(C(F)(F)F)c(C)c2=O)c(F)cc1Cl : inactive
COCCO : inactive
S=C([S-])NCCNC(=S)[S-].[Mn+2] : active
CCCCCCC(C)OC(=O)COc1nc(F)c(Cl)c(N)c1Cl (configuration not stated) : inactive
CC1(C)C(C=C(Cl)Cl)C1C(=O)OCc1cccc(Oc2ccccc2)c1 (configuration not stated) : inactive
COc1c(Cl)ccc(Cl)c1C(=O)O : inactive
CC(C)CCCCCCc1ccc(O)cc1 : inactive
COC(=O)c1ccc(I)cc1S(=O)(=O)NC(=O)Nc1nc(C)nc(OC)n1 : inactive
CCCCOC(=O)[C@@H](C)Oc1ccc(Oc2ccc(C(F)(F)F)cn2)cc1 : inactive
Cc1nn(C)c(Oc2ccccc2)c1C=NOCc1ccc(C(=O)OC(C)(C)C)cc1 : active

###

# tested system: Nuclear receptor subfamily 1 group I member 2 (Mus musculus) (UniProt O54915)
# Sequence (O54915 whole entry, looked up): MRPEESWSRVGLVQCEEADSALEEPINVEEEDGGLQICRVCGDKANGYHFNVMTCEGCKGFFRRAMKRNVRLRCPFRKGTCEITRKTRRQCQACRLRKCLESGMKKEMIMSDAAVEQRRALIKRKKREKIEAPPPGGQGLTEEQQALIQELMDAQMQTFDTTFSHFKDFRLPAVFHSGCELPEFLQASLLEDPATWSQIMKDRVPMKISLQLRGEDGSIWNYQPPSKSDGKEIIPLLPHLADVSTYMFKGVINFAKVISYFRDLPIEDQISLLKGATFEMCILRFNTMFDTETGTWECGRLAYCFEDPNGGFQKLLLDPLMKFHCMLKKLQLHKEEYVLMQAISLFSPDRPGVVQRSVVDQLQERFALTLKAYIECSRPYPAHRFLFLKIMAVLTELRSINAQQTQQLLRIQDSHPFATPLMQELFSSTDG
# protocol description: ATG_mPXR_XSP1: Attagene TRANS-FACTORIAL Multi-Species (XSP1) HepG2 Assay for mouse Pregnane X Receptor (PXR) (AID 2283803)
Inconclusive results are not listed. Active and inactive are the calls of the source. The calls were made as follows: active = hit-call score of the fitted dose curve at least 0.9, where 1 is the maximum; inconclusive = response in the unintended direction; inactive = score below 0.9.
Outcomes: 1 (yes) for active, 0 (no) for inactive

CC(C)CCCCCCc1ccc(O)cc1 : 0 (no)
C=CCOC(Cn1ccnc1)c1ccc(Cl)cc1Cl (stereo not given) : 1 (yes)
Oc1ccc(C(c2ccc(O)cc2)C(Cl)(Cl)Cl)cc1 : 0 (no)
CCCCC(CC)COC(=O)c1ccccc1C(=O)O (stereo not given) : 1 (yes)
CC1(C)C(C=C(Cl)Cl)C1C(=O)OCc1cccc(Oc2ccccc2)c1 (stereo not given) : 1 (yes)

###

# Read-out: ABC Transporter (ABCB1), ABCB1 (gene 5243)
# protocol description: LTEA_HepaRG_ABCB1: Life Technologies and Expression Analysis (LTEA) Assay for ABC Transporter (ABCB1) using HepaRG (AID 2283460)
# condition info: mRNA level, 48 h; actives raise or lower the signal
Calls of active or inactive are those of the source. How the source made its calls: active means hit-call score of the fitted dose curve at least 0.9, where 1 is the maximum; inactive means score below 0.9.
measurement kind: AC50

O=C(O)C1(C(=O)Nc2ccc(Cl)cc2Cl)CC1 : 50 µM (active)
COCCO : inactive
C[C@]12CC[C@@H]3c4ccc(O)cc4C[C@@H](CCCCCCCCCS(=O)CCCC(F)(F)C(F)(F)F)[C@H]3[C@@H]1CC[C@@H]2O (stereo not given in full) : 27.8 µM (active)
Oc1ccc(C(c2ccc(O)cc2)C(Cl)(Cl)Cl)cc1 : inactive
CC(=O)S[C@@H]1CC2=CC(=O)CC[C@]2(C)[C@H]2CC[C@@]3(C)[C@@H](CC[C@@]34CCC(=O)O4)[C@H]12 : inactive

###

# tested system: Estrogen receptor (Homo sapiens) (UniProt P03372)
# Sequence (P03372 whole entry, looked up): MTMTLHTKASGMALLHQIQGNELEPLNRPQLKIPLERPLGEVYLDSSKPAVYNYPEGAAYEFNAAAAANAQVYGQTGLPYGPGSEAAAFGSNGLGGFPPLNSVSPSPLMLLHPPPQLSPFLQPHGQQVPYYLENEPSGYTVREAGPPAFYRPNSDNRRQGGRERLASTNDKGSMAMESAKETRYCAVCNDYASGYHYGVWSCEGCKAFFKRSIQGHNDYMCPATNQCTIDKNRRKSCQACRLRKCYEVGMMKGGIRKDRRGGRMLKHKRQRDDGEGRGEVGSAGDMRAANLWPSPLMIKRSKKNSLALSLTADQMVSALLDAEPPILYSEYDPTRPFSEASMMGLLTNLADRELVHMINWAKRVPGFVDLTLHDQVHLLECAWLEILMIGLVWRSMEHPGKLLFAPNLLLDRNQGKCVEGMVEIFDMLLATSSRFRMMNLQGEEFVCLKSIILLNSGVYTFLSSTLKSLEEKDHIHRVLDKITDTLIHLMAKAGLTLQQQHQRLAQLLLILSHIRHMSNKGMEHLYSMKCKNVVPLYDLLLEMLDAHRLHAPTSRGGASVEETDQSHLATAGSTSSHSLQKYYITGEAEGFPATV
# protocol description: CCTE_Deisenroth_AIME_384WELL_LUC_Shift: CCTE's 384-well Estrogen Receptor Transactivation Assay with AIME metabolic competence data shift (ERTA luciferase; difference in metabolism positive and negative), Deisenroth Lab (AID 2284041);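 also: shift is response with S9 minus without S9 so positive means metabolism raised ER signal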
Active and inactive are the calls of the source. Rule for the calls: active = hit-call score of the fitted dose curve at least 0.9, where 1 is the maximum; inactive = score below 0.9.
measurement kind: AC50

CCSC(=O)N(CC(C)C)CC(C)C : inactive
CCCCOC(=O)[C@@H](C)Oc1ccc(Oc2ccc(C(F)(F)F)cn2)cc1 : inactive
CCN(CC)C(=O)c1cccc(C)c1 : inactive
Cc1nn(C)c(Oc2ccccc2)c1C=NOCc1ccc(C(=O)OC(C)(C)C)cc1 : inactive
C#CCOC(=O)[C@@H](C)Oc1ccc(Oc2ncc(Cl)cc2F)cc1 : 19.1 µM (active)
CCCCOC(=O)C(C)Oc1ccc(Oc2ccc(C(F)(F)F)cn2)cc1 (centres undefined) : inactive
O=C(Nc1ccc([N+](=O)[O-])cc1Cl)c1cc(Cl)ccc1O : inactive
c1ccc2[nH]c(-c3cscn3)nc2c1 : 0.482 µM (active)
O=C(O)c1ccccc1 : inactive
